All figures here come from patent US20250179161A1.

- measured_on: T1, Amyloid Beta (Aβ) 1-42 (human)
- T1 construct: The same peptide was used in several aggregation states: fibrils, a heterogeneous aggregate mixture, and soluble oligomers or aggregates; also called Aβ42; Aβ 42
- method_summary: SPR (BIAcore T200), Aβ1-42 fibrils immobilized on CM5, Fab as analyte, global 1:1 fit; apparent KD

binder	result_units	Kd
h2831 Fab (Fab, V domains shown) VH: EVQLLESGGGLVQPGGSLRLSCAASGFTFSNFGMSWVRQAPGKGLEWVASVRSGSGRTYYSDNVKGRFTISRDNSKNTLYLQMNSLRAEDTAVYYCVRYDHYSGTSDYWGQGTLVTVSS VL: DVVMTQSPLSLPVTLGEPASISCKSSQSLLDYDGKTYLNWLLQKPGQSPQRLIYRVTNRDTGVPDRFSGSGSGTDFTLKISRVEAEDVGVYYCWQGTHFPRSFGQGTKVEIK	nM	2.31
